TARGET_OR_SYSTEM: T1, human APJ receptor (human, UniProt P35414 1-380)
T1 sequence (looked up): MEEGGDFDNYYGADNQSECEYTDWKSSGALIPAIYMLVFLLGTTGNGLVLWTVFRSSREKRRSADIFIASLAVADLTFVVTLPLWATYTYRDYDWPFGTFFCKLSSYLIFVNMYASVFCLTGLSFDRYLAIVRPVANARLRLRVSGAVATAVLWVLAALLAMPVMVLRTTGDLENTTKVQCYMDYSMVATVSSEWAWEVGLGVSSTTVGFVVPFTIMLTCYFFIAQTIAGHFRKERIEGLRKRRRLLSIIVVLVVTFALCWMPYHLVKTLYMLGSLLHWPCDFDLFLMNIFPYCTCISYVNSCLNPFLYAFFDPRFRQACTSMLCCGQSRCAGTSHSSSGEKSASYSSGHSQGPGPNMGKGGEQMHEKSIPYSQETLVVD
EXPERIMENTAL_DETAILS: cell-based or functional assay
Starred links: 1 amine or outer side, 2 acyl side, 3 side chain; linkers in the order of their positions; H or OH if unused. Non-standard residues stand in square brackets, D forms with d. *: point of attachment. AC4Abu = α-carboxy-4-aminobutyric acid, O=C(C(CCN[*:1])C(=O)[*:3])[*:2]; Oic = O=C(O)[C@@H]1C[C@@H]2CCCC[C@@H]2N1; Phe(4-Cl) = N[C@@H](Cc1ccc(Cl)cc1)C(=O)O; γGlu = O=C(O)[C@H](CCC(=O)[*:2])N[*:1]; NMeR = CN[C@@H](CCCNC(=N)N)C(=O)O; Tridecanoyl = CCCCCCCCCCCCC(=O)*; hArg = N=C(N)NCCCC[C@H](N)C(=O)O; Cha = N[C@@H](CC1CCCCC1)C(=O)O; αMeP = C[C@@]1(C(=O)O)CCCN1; Nle = CCCC[C@H](N)C(=O)O; AEEA = NCCOCCOCC(=O)O; Aib = CC(C)(N)C(=O)O; BLeu = β-leucine
# EC50 Human APJ Receptor (GTPγS assay) values compiled below
ASSAY_ENDPOINT: EC50 Human APJ Receptor (GTPγS assay) (pM)

INSERT INTO results (binder, unit_abbrev, measured_result) VALUES
  ('Tridecanoyl-[γGlu][AEEA][AEEA][dQ]RP[NMeR][Cha]SHKG[Oic][Nle][Aib][Phe(4-Cl)]-OH [Apelin polypeptide SEQ ID NO: 540]', 'pM', 410),
  ('Tridecanoyl-[AC4Abu][AEEA][AEEA]QR[αMeP][hArg][BLeu]SHKG[Oic][Nle]P[Phe(4-Cl)]-OH [Apelin polypeptide SEQ ID NO: 392]', 'pM', 584),
  ('Tridecanoyl-[γGlu][AEEA][AEEA]QRE[NMeR]LSHKGP[Nle]P[Phe(4-Cl)]-OH (SMILES CCCCCCCCCCCCC(=O)N[C@@H](CCC(=O)NCCOCCOCC(=O)NCCOCCOCC(=O)N[C@@H](CCC(N)=O)C(=O)N[C@@H](CCCNC(=N)N)C(=O)N[C@@H](CCC(=O)O)C(=O)N(C)[C@@H](CCCNC(=N)N)C(=O)N[C@@H](CC(C)C)C(=O)N[C@@H](CO)C(=O)N[C@@H](Cc1c[nH]cn1)C(=O)N[C@@H](CCCCN)C(=O)NCC(=O)N1CCC[C@H]1C(=O)N[C@@H](CCCC)C(=O)N1CCC[C@H]1C(=O)N[C@@H](Cc1ccc(Cl)cc1)C(=O)O)C(=O)O) [Apelin polypeptide SEQ ID NO: 476]', 'pM', 346);

Value source: patent US10941182
